Kindly state inhibition for each of the entries shown.
MEASURED ON: Single-strand selective monofunctional uracil DNA glycosylase (Homo sapiens) (UniProt Q53HV7)
Sequence (Q53HV7 whole entry): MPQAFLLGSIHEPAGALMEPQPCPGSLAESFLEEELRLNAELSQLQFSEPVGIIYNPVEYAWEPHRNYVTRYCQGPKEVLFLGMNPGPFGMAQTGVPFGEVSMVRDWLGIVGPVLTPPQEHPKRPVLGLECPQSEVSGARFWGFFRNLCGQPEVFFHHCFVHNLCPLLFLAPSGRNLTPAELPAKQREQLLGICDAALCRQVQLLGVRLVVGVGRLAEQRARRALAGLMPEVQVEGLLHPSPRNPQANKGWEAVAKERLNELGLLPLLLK
ASSAY CONTEXT: Compound Concentration 10.0 uM, Hit No;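 note: enzymatic SMUG1 assay coupled with APE1, reading fluorescence at 594 nm released when a quenched double-stranded DNA oligonucleotide substrate is cleaved and separated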
Description: Inhibition of SMUG1 by quantifying inhibition of SMUG1-mediated cleavage and dissociation of quenched duplex DNA oligonucleotides, measured as fluorescence at 594 nm. To generate a functional strand incision and increase turn-over this assay is coupled to APE1.
One number for each entry, in %.

Hi there! I need inhibition for each item below, if you can.
1. CC1(C)C(=O)C(C)(C)c2cc(C(=O)Nc3ccc(C(=O)O)cc3)ccc21
2. C[C@@](Cc1c[nH]c2ccccc12)(NC(=O)Nc1ccc([N+](=O)[O-])cc1)C(=O)NCC1(c2ccccn2)CCCCC1
3. Cc1cc(OCCCS(C)(=O)=O)cc(C)c1-c1cccc(COc2ccc3c(c2)OC[C@H]3CC(=O)O)c1
4. COc1ccc2[nH]cc(CCNC(C)=O)c2c1

5.8
0.936
12.3
-7.74

Hi there! I need inhibition for each item below, if you can.
1. COC(c1ccccc1)(c1ccccc1)[C@H](Oc1nc(C)cc(C)n1)C(=O)O
2. Cn1nc(C(=O)NCc2ccc(C(=O)O)cc2)cc1-c1ccc2[nH]ccc2c1
3. NCC(O)c1ccc(O)cc1 (centres undefined)
4. C[C@@H]1CN(c2ncc(Cl)c(Nc3ccc4c(c3)n(CCC(C)(C)O)c(=O)n4C)n2)C[C@H](C)C1(F)F

[-3.28, 8.36, 16, 18]

Hi there! I need inhibition for each item below, if you can.
1. CN(c1ncccc1CNc1ccnc(-c2cc3cc(Cl)ccc3[nH]2)n1)S(C)(=O)=O
2. NCCc1cccs1

[14.4, -0.24]

Hi there! I need inhibition for each item below, if you can.
1. CCNC(=O)c1cc2c(N3CCOC[C@@H]3C)ccnc2n1C
2. CN1CCCC(n2nc(Cc3ccc(Cl)cc3)c3ccccc3c2=O)CC1 (centres undefined)
3. NCCc1cn(S(=O)(=O)c2c(Cl)nc3sccn23)c2ccccc12
4. COc1ccc2c(c1)O[C@H](c1ccc(OC)c(OC)c1)C[C@@H]2NC(=O)C1(c2ccc3c(c2)OC(F)(F)O3)CC1
5. COc1ccc2c(O[C@@H]3C[C@H]4C(=O)N[C@]5(C(=O)O)CC5/C=C\CCCCC[C@H](NC(=O)OC5CCCC5)C(=O)N4C3)cc(-c3csc(NC(=O)C(C)C)n3)nc2c1C (some centres undefined)
6. NC[C@@H]1O[C@H](C23CC4CC(CC(C4)C2)C3)Cc2c1ccc(O)c2O

1: 6.82; 2: 1.52; 3: 3.77; 4: 9.42; 5: -6.44; 6: 12.4

Hi there! I need inhibition for each item below, if you can.
1. COc1ccc(OC(=O)N(CC(=O)O)Cc2ccc(OCCc3nc(-c4ccccc4)oc3C)cc2)cc1
2. O=C1c2ccc(Nc3ccc(F)cc3F)cc2CCc2ccc(OC[C@H](O)CO)cc21
3. NC(CCP(=O)(O)O)C(=O)O (racemic)
4. Nc1nc2c(c(N3CCNCC3)n1)CCC1=C2[C@@H]2CCCC[C@@H]2O1
5. CNC(=O)c1cc(C(=O)N[C@H]2[C@@H]3COC[C@@H]32)cc2c1O[C@H](CF)[C@H]2c1ccccc1

[20.2, 11.5, 10.5, 13.7, 8.89]

Hi there! I need inhibition for each item below, if you can.
1. C[C@@H](NC(=O)Nc1cc2[nH]ncc2c(CO)n1)c1ccccc1
2. COc1ccc(NC(=O)c2ccc(-c3ccc(-c4noc(C)n4)cc3C)cc2)cc1OCCN(C)C
3. COc1ccc(/C=C/CCCCOc2ccc(C(=O)c3cccc(C(=O)O)c3)cc2CCC(=O)O)cc1

1. 21.2
2. -6.46
3. 12.1
